Conditions: human gut metagenome, 24 h, 2 µM; further: call rule not given here
readout: Bacterial Biotransformation

1) COC(=O)[C@H](c1ccccc1Cl)N1CCc2sccc2C1.O=S(=O)(O)O [CLOPIDOGREL BISULFATE]; Compound metabolized
2) C=CC[C@@H]1/C=C(\C)C[C@H](C)C[C@H](OC)[C@H]2O[C@@](O)(C(=O)C(=O)N3CCCC[C@H]3C(=O)O[C@H](/C(C)=C/[C@@H]3CC[C@@H](O)[C@H](OC)C3)[C@H](C)[C@@H](O)CC1=O)[C@H](C)C[C@@H]2OC.O [TACROLIMUS]; Compound metabolized

###

Assay: The drug is tested on WLS-027 corresponding to human gut metagenome with ENA study accession number: PRJEB37062 and ENA sample accession number: ERS12561744 for biotransformation under anaerobic condition. The drug concentrations were measured over 9 timepoints collected between 0 and 24 hours of incubation by liquid-chromatography-coupled mass spectrometry (LC–MS)
Settings: 2 µM
readout: Bacterial Biotransformation

See these solved cases before continuing.
1) CCCN(CCC)CCc1cccc2c1CC(=O)N2 [ROPINIROLE]; Compound NOT metabolized
2) CCOc1cc(CC(=O)N[C@@H](CC(C)C)c2ccccc2N2CCCCC2)ccc1C(=O)O [REPAGLINIDE]; Compound metabolized
3) N=C(N)NC(=O)Cc1c(Cl)cccc1Cl [GUANFACINE]; Compound NOT metabolized
4) c1ccc2[nH]c(-c3cscn3)nc2c1 [THIABENDAZOLE]; Compound NOT metabolized
5) O=C(NC(Cc1cc(=O)[nH]c2ccccc12)C(=O)O)c1ccc(Cl)cc1 (stereo not given) [REBAMIPIDE]; Compound NOT metabolized

INPUT: Endpoint output: Bacterial Biotransformation of CN(C)C(=O)Oc1cc(OC(=O)N(C)C)cc(C(O)CNC(C)(C)C)c1 (stereo not given) [BAMBUTEROL] . Value?
OUTPUT: Compound NOT metabolized

INPUT: Endpoint output: Bacterial Biotransformation of CN1CCC(OC(c2ccccc2)c2ccccc2)CC1 . Value?
OUTPUT: Compound NOT metabolized
